Values from ChEMBL document CHEMBL1201862

Entries annotated with measured IC50
- assayTarget: Mannose-6-phosphate isomerase (Homo sapiens)
- Sequence (P34949 whole entry): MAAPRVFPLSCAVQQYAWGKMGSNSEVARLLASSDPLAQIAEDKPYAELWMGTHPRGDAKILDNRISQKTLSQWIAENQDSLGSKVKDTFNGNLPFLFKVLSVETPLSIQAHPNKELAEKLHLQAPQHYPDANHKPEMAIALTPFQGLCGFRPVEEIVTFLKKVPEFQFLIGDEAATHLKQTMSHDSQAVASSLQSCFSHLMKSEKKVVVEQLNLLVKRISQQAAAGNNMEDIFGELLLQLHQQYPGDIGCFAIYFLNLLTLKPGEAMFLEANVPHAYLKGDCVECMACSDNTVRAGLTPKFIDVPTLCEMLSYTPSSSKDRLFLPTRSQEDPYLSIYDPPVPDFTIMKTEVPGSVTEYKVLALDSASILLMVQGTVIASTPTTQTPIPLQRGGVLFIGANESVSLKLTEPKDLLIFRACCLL
- assayText: human PMI inhibitors, high substrate, primary screen, biochemical, fluorescence intensity, high mannose 6-phosphate (AID 1220)

The cases that follow already have their IC50 on record.
Need IC50, item `CCOc1ccc(/C=N/c2cccc3ncccc23)cc1` > 50 µM (not active)

Need IC50, item `CNc1c([N+](=O)[O-])ccc2c1=NC1(CCCCC1)[N+]=2[O-]` > 50 µM (not active)

Could you now consider this next compound?
Need IC50, item `CN(C(=S)Nc1cccnc1)c1ccc(O)cc1` > 50 µM (not active)

====

- assayTarget: Glyceraldehyde-3-phosphate dehydrogenase (Homo sapiens)
- Sequence (P04406 whole entry): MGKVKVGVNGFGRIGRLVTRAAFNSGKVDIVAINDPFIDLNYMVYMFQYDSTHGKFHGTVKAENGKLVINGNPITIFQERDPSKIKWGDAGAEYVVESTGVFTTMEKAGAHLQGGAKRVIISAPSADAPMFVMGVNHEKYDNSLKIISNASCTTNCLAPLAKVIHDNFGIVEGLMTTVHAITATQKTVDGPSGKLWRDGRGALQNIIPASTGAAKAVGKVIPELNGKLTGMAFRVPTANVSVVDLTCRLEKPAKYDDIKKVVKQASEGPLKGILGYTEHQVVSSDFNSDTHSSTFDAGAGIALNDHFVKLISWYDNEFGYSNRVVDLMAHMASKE
Entries annotated with measured IC50

The cases that follow already have their IC50 on record.
Record lookup: for Glyceraldehyde-3-phosphate dehydrogenase (Homo sapiens), what IC50 belongs to `CCS(=O)(=O)c1nc(NC(C)=O)n[nH]1` ? > 100 µM (not active)

Record lookup: for Glyceraldehyde-3-phosphate dehydrogenase (Homo sapiens), what IC50 belongs to `COc1ccc(N2CCN(C3=C(Cl)C(=O)N(c4cccc(C(F)(F)F)c4)C3=O)CC2)cc1` ? > 50 µM (inconclusive)

Continuing:
Record lookup: for Glyceraldehyde-3-phosphate dehydrogenase (Homo sapiens), what IC50 belongs to `O=C(O)c1cc(S(=O)(=O)Nc2ccccc2C(=O)O)ccc1O` ? > 100 µM (not active)

Record lookup: for Glyceraldehyde-3-phosphate dehydrogenase (Homo sapiens), what IC50 belongs to CCOC(=O)C1Nc2c(O)ccc(C)c2C2C=CCC12 (configuration not stated) ? > 100 µM (not active)

Record lookup: for Glyceraldehyde-3-phosphate dehydrogenase (Homo sapiens), what IC50 belongs to `COc1cccc(N2C(=O)C(Cl)=C(N3CCN(c4ncccn4)CC3)C2=O)c1` ? > 50 µM (inconclusive)

Record lookup: for Glyceraldehyde-3-phosphate dehydrogenase (Homo sapiens), what IC50 belongs to `CCCCCCn1c(=O)nc(NCc2ccccc2OC)[nH]c1=O` ? > 100 µM (not active)

Record lookup: for Glyceraldehyde-3-phosphate dehydrogenase (Homo sapiens), what IC50 belongs to Nc1ncnc2c1ncn2[C@@H]1O[C@H](COP(=O)(O)OP(=O)(O)OP(=O)(O)O)[C@@H](O)[C@H]1O [ADENOSINE TRIPHOSPHATE] ? > 100 µM (not active)
